- TESTED_ON: T1, human MSLN-R3 protein (Met487-Ser606 of NCBI AAH09272.1) expressed on HEK293T-hMSLN-R3 cells (human, UniProt Q13421 487-606)
- T1 construct: also called Region3
- PROCEDURE_DETAILS: FACS on HEK293T-hMSLN-R3 cells;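 further: flow cytometry binding of test chimeric antibodies to cells after 2 h incubation on ice, with values derived from the mean fluorescence intensity of the cells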
RECORDED_ENDPOINT: EC50 (nM)
Please respond with the number in nM and leave the unit unwritten.

The cases that follow already have their EC50 on record.
BINDER	EC50, nM
S009-F7.65.13 (antibody, human IgG1, kappa, V domains shown, human-murine chimeric antibody, human IgG1/kappa constant regions) VH: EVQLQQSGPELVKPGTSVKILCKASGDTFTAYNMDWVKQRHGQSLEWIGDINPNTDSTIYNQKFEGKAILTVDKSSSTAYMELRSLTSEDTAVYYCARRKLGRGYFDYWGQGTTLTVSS VL: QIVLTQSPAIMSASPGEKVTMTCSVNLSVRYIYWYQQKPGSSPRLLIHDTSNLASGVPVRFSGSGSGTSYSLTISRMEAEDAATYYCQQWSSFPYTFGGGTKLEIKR	0.91
S009-F7.44.20 (antibody, human IgG1, kappa, V domains shown, human-murine chimeric antibody, human IgG1/kappa constant regions) VH: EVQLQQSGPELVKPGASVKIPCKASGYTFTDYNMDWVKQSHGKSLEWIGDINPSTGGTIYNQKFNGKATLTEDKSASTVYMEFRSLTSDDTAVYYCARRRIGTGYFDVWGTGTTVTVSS VL: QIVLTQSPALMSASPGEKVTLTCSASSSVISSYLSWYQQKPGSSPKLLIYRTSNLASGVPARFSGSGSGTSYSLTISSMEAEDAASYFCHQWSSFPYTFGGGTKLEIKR	0.04
S009-F7.25.19 (antibody, human IgG1, kappa, V domains shown, human-murine chimeric antibody, human IgG1/kappa constant regions) VH: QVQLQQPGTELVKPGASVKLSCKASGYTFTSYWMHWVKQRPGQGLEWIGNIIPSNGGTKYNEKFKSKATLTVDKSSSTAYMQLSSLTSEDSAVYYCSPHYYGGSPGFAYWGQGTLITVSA VL: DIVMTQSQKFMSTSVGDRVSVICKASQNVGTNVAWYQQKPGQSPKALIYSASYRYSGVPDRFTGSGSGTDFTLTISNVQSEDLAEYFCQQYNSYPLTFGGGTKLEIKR	0.06
S009-F7.61.21 (antibody, human IgG1, kappa, V domains shown, human-murine chimeric antibody, human IgG1/kappa constant regions) VH: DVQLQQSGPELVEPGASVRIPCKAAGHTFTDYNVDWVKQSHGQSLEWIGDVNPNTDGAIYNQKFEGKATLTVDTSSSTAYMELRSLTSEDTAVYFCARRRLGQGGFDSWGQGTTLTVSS VL: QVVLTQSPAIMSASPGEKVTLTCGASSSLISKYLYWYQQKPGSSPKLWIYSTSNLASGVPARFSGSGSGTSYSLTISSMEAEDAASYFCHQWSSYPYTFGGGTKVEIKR	0.48
S009-F7.69.8 (antibody, human IgG1, kappa, V domains shown, human-murine chimeric antibody, human IgG1/kappa constant regions) VH: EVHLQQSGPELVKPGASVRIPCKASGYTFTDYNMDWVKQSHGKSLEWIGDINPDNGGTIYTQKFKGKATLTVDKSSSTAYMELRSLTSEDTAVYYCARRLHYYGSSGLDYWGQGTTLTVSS VL: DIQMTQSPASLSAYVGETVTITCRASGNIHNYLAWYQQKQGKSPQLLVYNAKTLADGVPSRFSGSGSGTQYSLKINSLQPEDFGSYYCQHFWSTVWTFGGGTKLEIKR	0.14
S009-F7.12.13 (antibody, human IgG1, kappa, V domains shown, human-murine chimeric antibody, human IgG1/kappa constant regions) VH: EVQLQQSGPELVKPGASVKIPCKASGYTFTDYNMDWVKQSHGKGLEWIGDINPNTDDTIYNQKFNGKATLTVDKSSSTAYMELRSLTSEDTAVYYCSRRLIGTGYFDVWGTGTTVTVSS VL: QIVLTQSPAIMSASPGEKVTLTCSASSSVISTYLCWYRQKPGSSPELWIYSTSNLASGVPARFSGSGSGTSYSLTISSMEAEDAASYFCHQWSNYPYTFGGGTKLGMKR	0.12
Tab106 (YP218, hIgG1) (antibody, V domains shown, Control antibody; also called YP218 human IgG1 antibody) VH: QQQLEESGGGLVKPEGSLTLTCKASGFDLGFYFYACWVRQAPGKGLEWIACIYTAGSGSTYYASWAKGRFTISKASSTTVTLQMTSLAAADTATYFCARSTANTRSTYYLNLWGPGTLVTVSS VL: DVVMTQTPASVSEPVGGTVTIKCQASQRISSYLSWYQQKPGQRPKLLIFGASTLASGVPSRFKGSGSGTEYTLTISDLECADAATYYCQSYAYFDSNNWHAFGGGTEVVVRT	0.65
S009-F7.66.12 (antibody, human IgG1, kappa, V domains shown, human-murine chimeric antibody, human IgG1/kappa constant regions) VH: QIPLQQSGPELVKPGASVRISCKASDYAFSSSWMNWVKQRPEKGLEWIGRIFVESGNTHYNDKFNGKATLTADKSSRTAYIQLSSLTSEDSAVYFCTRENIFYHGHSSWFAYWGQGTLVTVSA VL: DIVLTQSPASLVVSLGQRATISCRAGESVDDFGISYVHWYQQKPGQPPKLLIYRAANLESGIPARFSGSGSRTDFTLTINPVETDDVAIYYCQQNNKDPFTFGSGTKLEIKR	0.38
S009-F7.53.2 (antibody, human IgG1, kappa, V domains shown, human-murine chimeric antibody, human IgG1/kappa constant regions) VH: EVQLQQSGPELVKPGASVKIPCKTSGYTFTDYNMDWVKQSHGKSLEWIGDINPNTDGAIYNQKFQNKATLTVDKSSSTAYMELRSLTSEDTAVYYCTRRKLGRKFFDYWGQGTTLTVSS VL: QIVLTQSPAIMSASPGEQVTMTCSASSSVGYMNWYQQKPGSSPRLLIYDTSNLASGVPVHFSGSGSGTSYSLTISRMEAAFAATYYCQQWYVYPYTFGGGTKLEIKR	1.3

As a next step, examine the binder that follows.
Query: Consider the binder S009-F7.11.11 (antibody, human IgG1, kappa, V domains shown, human-murine chimeric antibody, human IgG1/kappa constant regions) VH: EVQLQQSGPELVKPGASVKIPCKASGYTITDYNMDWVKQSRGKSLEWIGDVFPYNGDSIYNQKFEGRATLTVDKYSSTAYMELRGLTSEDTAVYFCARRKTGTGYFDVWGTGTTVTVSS VL: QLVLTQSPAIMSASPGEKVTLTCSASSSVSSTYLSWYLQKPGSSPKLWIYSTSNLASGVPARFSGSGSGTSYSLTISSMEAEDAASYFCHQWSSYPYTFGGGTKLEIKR and give its measured EC50.
Result: 0.28
